The reported numbers originate from the supplement of paper PMC9170038.

Would you mind telling me the reported apparent KD of MS2 coat protein of each entry?
- Test system: MS2 coat protein
- METHOD SUMMARY: apparent KD of MS2 coat protein, switch ON state; designed switch direction (-1 OFF switch, 1 ON switch): -1; higher = weaker reporter binding
- EXPERIMENTAL CONTEXT: FMN input: 0 or 200 uM; Eterna round: R93 (includes R88 designs)
Numeric answer only, unit nM assumed.

Param readout = apparent KD of MS2 coat protein; param system = MS2 coat protein; param query = AAUAAACAUGAGGAUCACCCAUGUGAGGAUAUGGUAUUAUUAGGACAGUAAUGAUAUACCAGAAGGCACAAAUA [JR_Exc001_Sub1104] ; response: value
36.9

Param readout = apparent KD of MS2 coat protein; param system = MS2 coat protein; param query = AAGAAACAUGAGGAUCACCCAUGUGAGGAUAUCCAAGAAAGAAAGAAAGAAAGAAGAAGGAGAAGGCACAAAGG [Quintus Ostorius Scapula] ; response: value
50.5

Param readout = apparent KD of MS2 coat protein; param system = MS2 coat protein; param query = AACUGACAUGAGGAUCACCCAUGUCAGGAUAUGCUUCAUAAAAAAAAAAAAAAAUGAUGCAGAAGGGACAUGGG [Design 32 :P Sub-opt 8] ; response: value
41.6

---

- System: MS2 coat protein
- METHOD SUMMARY: apparent KD of MS2 coat protein; designed switch direction (-1 OFF switch, 1 ON switch): 1; higher = weaker reporter binding
- EXPERIMENTAL CONTEXT: Eterna round: R98; input ligand: none
Would you mind telling me the reported apparent KD of MS2 coat protein of each entry?
Numeric answer only, unit nM assumed.

Need apparent KD of MS2 coat protein, item CACGUCCACACAGGAUAUGCUGGACUUUGUCCAGCAGAAGGGUGACAACAUGAGGAUCACCCAUGUAGGACGUGUAUAUUUAAG [Mat - Same State NG 1 - Eli mod - D100]
2090

Need apparent KD of MS2 coat protein, item CAUGUCCUCACAGGAUAUGCUGGACUUUGUCCAGCAGAAGGGUGAACAUGAGGAUCACCCAUGUUGUGGACAUGUAUAUUUAAU [Denovo 12]
394

Need apparent KD of MS2 coat protein, item AGAACAUGAGGAUCACCCAUGUUAAGGUCGGUAAAUAAGGGUGAGGAUAUGCUUAAAAUAAGGUAGCAGAAGGUGCUUGGUGCA [SameState #76 NG3]
163

Need apparent KD of MS2 coat protein, item AAAACAUGAGGAUCACCCAUGUAAAGAACGGUUAAUAAAAGUGAGGAUAUACAAAAUUUUAUAUAGUAGAAGGCACUGGGUACA [JR_SSNG3_Sub008]
20.6

Need apparent KD of MS2 coat protein, item GCUGUCGCAUGAGGAUAUGGUCAGCUUUGCUGACCAGAAGGCAUGUCGAUAGACAUGAGGAUCACCCAUGUAGUAAAGACAGCA [jl-sng1-2.08 jl mod]
693

Need apparent KD of MS2 coat protein, item CGUGUGGCAUGAGGAUAUGGUCAGCUUUGCUGACCAGAAGGCAUGUCAAUAGACAUGAGGAUCACCCAUGUAGUUAACACACGA [Mat - Same State NG 1 - JL Mod - D23]
575

---

- Tested on: K4 kissing-loop RNA reporter
- METHOD SUMMARY: apparent KD of K4 kissing-loop reporter; higher = weaker reporter binding
- EXPERIMENTAL CONTEXT: Eterna round: R107; input ligand: arginine 13.2 mM
Would you mind telling me the reported apparent KD of K4 kissing-loop reporter of each entry?
Numeric answer only, unit nM assumed.

Need apparent KD of K4 kissing-loop reporter, item GUUACGCAUGGAAGGAGCGCUCUCCGGCUUAUUAACACAGUGAUGUUGUGAUUUUGCCGAAAGCAGGUAGGUCGCCAUGUGUAAC [Ex Arginine B K4 11]
363

Need apparent KD of K4 kissing-loop reporter, item GUAGACAGACUGCAAGCCUAGUCUACAGACUAGGAUAUCAGGAAACUGAGAAGGAGUCUAGUUGCAGUGAUGUUGCAAGAAUAAU [KL-SSFMN-A24]
135

Need apparent KD of K4 kissing-loop reporter, item GAUGAUCGCGCGGCCGCCACUGGUCAGUGAUGUUGACAUUAAUGCGCCGAGUAGUAACGGCGCAGUAGGACCGGGCGCGAUGUAG [#13 K4 Tryptophan B Same State]
139

Need apparent KD of K4 kissing-loop reporter, item GGAUAGGACACGGCCGCCACUACCGAGGAUACUCGAAACAUUUCCUCAGAUGAGUGAUGUUCAUCUAGGACCGGGUGUCCUAUCG [KL-XTryp-B19 #analogue]
103

Need apparent KD of K4 kissing-loop reporter, item AGUGAUGUGGGAAGGAGCGGUAUAUGAGUUCAGUGAUGUUGAAGUGAUGAUAUAGUGAUGUGCCAGGUAGGUCGCCUAGAUGUUA [KL-XARG-B5]
144

Need apparent KD of K4 kissing-loop reporter, item UCCUACGAGGUAACGUGGAUAUCUCGUUGCAAGGAUAUCUGGAAACAGAGAAGGUGCUACAUUAUCGGCAGUGAUGUUGCUGACC
655

---

- Test system: MS2 coat protein
- METHOD SUMMARY: apparent KD of MS2 coat protein; designed switch direction (-1 OFF switch, 1 ON switch): 1; higher = weaker reporter binding
- EXPERIMENTAL CONTEXT: input ligand: FMN 200 uM
OBSERVED PROPERTY: apparent KD of MS2 coat protein (nM)
Numeric answer only, unit nM assumed.

Need apparent KD of MS2 coat protein, item AAAGGAUGAUGUUACAUGAGGAUCACCCAUGUUGUGAUAACUAAGGAUAUGUGUUUAACCAGUUAAUAGAAGGUAGGAUCAUAA [AK SSNG3-V2-4] (Eterna round: R96, puzzle: Same State NG 3)
168

Need apparent KD of MS2 coat protein, item GCUCGAUGAUAGUCCUACAUGAGGAUCACCCAUGUAAGUGGGCAGGAUAUCUACAUGCAGAAUGUAGAGAAGGGCCCGUCGAGC [SameState NG3 #56] (Eterna round: R96, puzzle: Same State NG 3)
16.1

Need apparent KD of MS2 coat protein, item UGUAUACAUGAGGAUCACCCAUGUCAACGUAGUCGAGGAUAUGGGCAGCCGUGAGGCGUACCAGAAGGCGAAGAGG [JL-ss1-3.05 ViennaUCT mod] (Eterna round: R96, puzzle: Same State 1)
36.5

Need apparent KD of MS2 coat protein, item GAGUAGUUGGGAGGAUAUCGAUUGUUAUAGAAUCGAGAAGGUCCUAACAUGAGGAUCACCCAUGUAGGACUAUUCCUGUGUAUC [Parity 75 - Jieux - Same State NG 1] (Eterna round: R96, puzzle: Same State NG 1)
9.81

---

- System: K4 kissing-loop RNA reporter;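 note: bound reporter read as fluorescence of individual clusters on recovered sequencing chips by microscopy, with normalized cluster intensities fitted with a binding model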
- METHOD SUMMARY: apparent KD of K4 kissing-loop reporter; higher = weaker reporter binding
- EXPERIMENTAL CONTEXT: Eterna round: R107; input ligand: arginine 13.2 mM
OBSERVED PROPERTY: apparent KD of K4 kissing-loop reporter (nM)
Numeric answer only, unit nM assumed.

Need apparent KD of K4 kissing-loop reporter, item UAACCGCAGAAAGAUACCAGUGAGUGAUGUUCCUCGAUCCUGUGGUUCAUUCUCUUUACCCACCCUUGGCAGCUUCAAAUGUGAC [theeternabot_exclusion_KL_Theo_B_4]
537

Need apparent KD of K4 kissing-loop reporter, item UCCUAGGUUCGUCGGCGAAAGCCCUGCGAAGGAGCGUGCGAAAGCACAGGUAGGUCGCGCAGUGAUGUUGCACCUAGGUAAUAAA [#SwitchBubble 23 #K4Late]
672

Need apparent KD of K4 kissing-loop reporter, item AAAUAAAUGGCGGCCGCCACUGAACGCCUCCGCGUGGGUAUAUAGUGAUGUUAUAUGGCCGCCAUCAGGACCGGGCCAAAUAAAA [#08 K4 Tryptophan B Same State]
259

Need apparent KD of K4 kissing-loop reporter, item AGAGUUAAUUAGUCAUUUUUCACAUUAAGUCAGGAUAUCGUAUUUUCGAGAAGGGACACAUGCUAGUGAUGUUAGCUAUUUCUCA [JR_Nu_ExcFMNA_Sub021]
93.9

Need apparent KD of K4 kissing-loop reporter, item GCUAUGGUAGGAAGGAGCGCUUACUCGUUAAUAAGAGUGAUGUUCGAUAACGAGUAUUUAUAGCAGGUAGGUCGCCUACUAUAGC [Arginine B K4 4]
193

Need apparent KD of K4 kissing-loop reporter, item UUUAGGAACUGAGGAUAUUCGAAGAAAUAUAGUGAUGUUAUAUAAGGAGGAGGAGGGAGGGAGGAAGGAGAAGGCAGAAGAGGAG [ExFMNB.E]
243

---

- System: MS2 coat protein
- METHOD SUMMARY: apparent KD of MS2 coat protein; higher = weaker reporter binding
- EXPERIMENTAL CONTEXT: Eterna round: R107; input ligand: tryptophan 2.4 mM
OBSERVED PROPERTY: apparent KD of MS2 coat protein (nM)
Numeric answer only, unit nM assumed.

Need apparent KD of MS2 coat protein, item UUAACGAGCUGAAGGAGCGCUCCUCAACAACAUGAGGAUCACCCAUGUACACAUAAUAGGGAGCAGGUAGGUCGCAGCAGGAUGG [ss-argB-?]
15

Need apparent KD of MS2 coat protein, item UUACAUGAGGAUCACCCAUGUCAUAAUGAUACCAGAUAGUUGAUGAUCCCUUGGCAGCAUAGUACCUAGACAUGUGAGUCAUAGG [Ab]
76.8

Need apparent KD of MS2 coat protein, item ACGCGCAGCAGAAGGAGCGUCUUAAUUCUACAUGAGGAUCACCCAUGUUUACAUUGGAUAUGACAGGUAGGUCGCUGGUGUGCGA [#06 Same State - Arginine B]
15.6

Need apparent KD of MS2 coat protein, item UGGGUACAUGAGGAUCACCCAUGUACUGAAGGAGCGAGAAAUAUCUCAGGUAGGUCGCAGACAUGAGGAUCACCCAUGUAGUAGG [Exclusion Arginine A GF 11]
26.7

Need apparent KD of MS2 coat protein, item AAUAAUCUAGGUGAUACCAGCUCAACAUGAGGAUCACCCAUGUGCUCAUGAAGAGCUGAGAGCCCUUGGCAGCACCUAGAUAAUA [(Theo1)-(Ms2)-(M)'-(T)'-(Theo2)_Design2]
1100

Need apparent KD of MS2 coat protein, item GUUAUGGACCUGGAUACCAGCUGGUACGAGGGCGGUCUACAUGAGGAUCACCCAUGUGUCAGCCCUUGGCAGCCAGCAACCCGCU [Raquleer]
9.92

Need apparent KD of MS2 coat protein, item ACACAUGAGGAUCACCCAUGUUCAAUAGAUACCAGUGAUACGGUGCACCCUUGGCAGCUGUUGCUGAGUGAUGGUUCCCUCGGAA [#22 SameState-TheophyllineA]
52.5

Need apparent KD of MS2 coat protein, item AAAUGAAGGCGAAGGAGCGGGAACAUGAGGAUCACCCAUGUGUAUGUAUGUAGUCAUGUAUCUCAGGUAGGUCGCGCUGUUACAU [Exclusion Arginine B 2]
106

Need apparent KD of MS2 coat protein, item AAUAUAUAUCACGAACUGUGGUGUAUGUUGCGAGGACCGGUACGGCCGCCACUCGACCGGUGGUACAUGAGGAUCACCCAUGUUG [XTryp A #10]
58.1

Need apparent KD of MS2 coat protein, item UUAGAUAUGACAGAUACCAGCGUGUUGUUGAACAUGAGGAUCACCCAUGUAGUGAUCGAGCGCCCUUGGCAGCUGGUGUGUUUGG [7.Q]
225

Need apparent KD of MS2 coat protein, item GACAUGAGGAUCGAUACCAGCGACAUGAGGAUCACAUGAGGAUCACCCAUGUGUAGUAUACGCCCUUGGCAGCGAACAUGAGGAU [Same State Theophylline B 3]
32.3

Need apparent KD of MS2 coat protein, item AAAUUAUCGGCGGCCGCCACUAGAGUUAGGCUUAUGUACUGGGUAACAUGAGGAUCACCCAUGUAUAGGACCGGGCCAUAAUAAA [Same State - Tryptophan B (Freestyle 4)]
72.1
